- Assayed System: PI3Kbeta (Homo sapiens, UniProt P42338)
- Sequence (P42338 whole entry): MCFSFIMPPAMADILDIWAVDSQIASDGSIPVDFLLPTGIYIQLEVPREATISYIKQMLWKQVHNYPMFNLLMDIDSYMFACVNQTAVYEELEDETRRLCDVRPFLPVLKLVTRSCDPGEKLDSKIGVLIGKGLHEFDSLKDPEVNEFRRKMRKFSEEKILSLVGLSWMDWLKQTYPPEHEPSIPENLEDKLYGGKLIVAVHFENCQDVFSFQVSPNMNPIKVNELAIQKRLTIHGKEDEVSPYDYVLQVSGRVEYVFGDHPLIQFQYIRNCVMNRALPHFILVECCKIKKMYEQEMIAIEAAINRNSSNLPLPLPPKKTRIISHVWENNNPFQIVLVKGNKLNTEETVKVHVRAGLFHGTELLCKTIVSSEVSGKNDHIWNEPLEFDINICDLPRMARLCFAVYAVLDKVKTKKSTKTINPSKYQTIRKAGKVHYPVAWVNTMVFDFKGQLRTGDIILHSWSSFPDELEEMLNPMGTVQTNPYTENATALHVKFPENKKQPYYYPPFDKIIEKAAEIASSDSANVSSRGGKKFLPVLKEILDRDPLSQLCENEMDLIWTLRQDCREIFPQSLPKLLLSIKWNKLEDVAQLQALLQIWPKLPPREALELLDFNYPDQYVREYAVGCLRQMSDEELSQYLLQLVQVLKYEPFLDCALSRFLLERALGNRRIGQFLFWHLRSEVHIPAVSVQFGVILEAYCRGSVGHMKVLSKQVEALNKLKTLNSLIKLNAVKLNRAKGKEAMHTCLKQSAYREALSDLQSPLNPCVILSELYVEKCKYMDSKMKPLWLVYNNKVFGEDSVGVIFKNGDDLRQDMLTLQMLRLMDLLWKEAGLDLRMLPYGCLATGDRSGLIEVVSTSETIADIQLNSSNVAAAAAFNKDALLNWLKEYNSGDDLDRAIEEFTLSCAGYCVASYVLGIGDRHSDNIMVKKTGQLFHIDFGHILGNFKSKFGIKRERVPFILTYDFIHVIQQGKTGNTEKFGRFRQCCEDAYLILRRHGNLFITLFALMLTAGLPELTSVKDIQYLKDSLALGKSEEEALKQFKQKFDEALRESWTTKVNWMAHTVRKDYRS
- Sequence (P27986 whole entry partner): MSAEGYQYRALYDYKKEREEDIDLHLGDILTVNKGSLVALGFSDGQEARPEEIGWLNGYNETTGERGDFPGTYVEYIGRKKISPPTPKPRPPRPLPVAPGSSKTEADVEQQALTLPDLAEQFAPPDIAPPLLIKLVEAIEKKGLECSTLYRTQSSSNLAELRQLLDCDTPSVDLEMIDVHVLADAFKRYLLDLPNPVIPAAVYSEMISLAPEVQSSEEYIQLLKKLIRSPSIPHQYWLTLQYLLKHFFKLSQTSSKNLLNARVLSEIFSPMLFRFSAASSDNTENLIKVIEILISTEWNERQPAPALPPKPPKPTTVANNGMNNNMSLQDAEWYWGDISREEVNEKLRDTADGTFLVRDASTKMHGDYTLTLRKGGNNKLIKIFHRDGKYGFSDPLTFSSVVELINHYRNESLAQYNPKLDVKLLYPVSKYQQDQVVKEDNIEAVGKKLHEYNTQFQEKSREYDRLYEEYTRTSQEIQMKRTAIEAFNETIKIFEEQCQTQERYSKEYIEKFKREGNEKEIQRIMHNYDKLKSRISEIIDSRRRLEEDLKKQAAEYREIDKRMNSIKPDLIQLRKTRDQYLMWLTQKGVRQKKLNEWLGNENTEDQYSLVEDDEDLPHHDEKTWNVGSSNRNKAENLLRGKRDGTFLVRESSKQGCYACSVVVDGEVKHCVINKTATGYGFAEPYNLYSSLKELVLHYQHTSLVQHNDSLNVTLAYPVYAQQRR
- Assay Info: Biochemical PI3Kbeta assay (neomycin SPA, lipid phosphorylation)
- Condition: human recombinant GST-PI3K
Listed here: items and their measured IC50.
Parameter: IC50

INSERT INTO assay_data (compound, parameter, readout_value) VALUES
  ('Cn1cc(-c2cc(-c3cnc4[nH]ccc4c3)ccn2)n(-c2ccc(C(C)(C)CN)cc2)c1=O [Example A35]', 'IC50', '0.1 to 10 µM'),
  ('Cn1cc(-c2cc(-c3cnc4[nH]ccc4c3)ccn2)n(-c2ccc(N3CCOCC3)c(C(F)(F)F)c2)c1=O [Example A71]', 'IC50', '0.1 to 10 µM'),
  ('CN1CCN(c2ccc(-n3c(-c4cc(-c5cnc6[nH]ccc6c5)ccn4)cn(C)c3=O)cc2C(F)(F)F)CC1 [Example A49]', 'IC50', '0.1 to 10 µM'),
  ('Cc1cc2cc(-c3ccnc(-c4cn(C)c(=O)n4-c4ccc(N5CCN(C)CC5)c(C(F)(F)F)c4)c3)cnc2[nH]1 [Example A88]', 'IC50', '0.1 to 10 µM'),
  ('CC(=O)N1CCN(c2ccc(-n3c(-c4cc(-c5cnc6[nH]ccc6c5)ccn4)cn(C)c3=O)cc2C(F)(F)F)CC1 [Example A72]', 'IC50', '0.1 to 10 µM'),
  ('Cn1cc(-c2cc(-c3ccc(NS(C)(=O)=O)cc3)ccn2)n(-c2ccc(N3CCNCC3)c(C(F)(F)F)c2)c1=O [Example A62]', 'IC50', '> 10 µM'),
  ('Cn1cc(-c2cc(-c3cnc4[nH]c(C(F)(F)F)cc4c3)ccn2)n(-c2ccc(C(C)(C)C#N)cc2)c1=O [Example A27]', 'IC50', '> 10 µM');

###

Listed here: items and their measured IC50.
- Assayed System: PI3Kbeta (Homo sapiens)
- Assay Info: Biochemical PI3Kbeta assay (neomycin SPA, lipid phosphorylation)
- Condition: human recombinant GST-PI3K
- Experimental: The efficacy of the compounds according to the invention in the inhibition of PI3K-induced lipid phosphorylation can be investigated in the following binding assay. […] After precipitation of the neomycin-coated PVT-SPA beads over 5 minutes at 1500×g, radioactive Ptdlns(3)P is quantified by scintillation counting in a Wallac Micro-Beta™ plate counter.
Parameter: IC50

INSERT INTO assay_data (smiles_representation, parameter, readout_value) VALUES
  ('Cn1cc(-c2cc(-c3cnc4c(c3)CCC(=O)N4)ccn2)n(-c2ccc(C(C)(C)C#N)cc2)c1=O', 'IC50', '100 to 10000 nM'),
  ('Cn1cc(-c2cc(-c3cnc(N)c(C(F)(F)F)c3)ccn2)n(-c2ccc(C(C)(C)C#N)cc2)c1=O', 'IC50', '0.1 to 100 nM'),
  ('Cn1cc(-c2cc(-c3cnc4[nH]ccc4c3)ccn2)n(-c2cccc(Oc3ccccc3)c2)c1=O', 'IC50', '100 to 10000 nM'),
  ('CN1CCN(c2ccc(-n3c(-c4cc(-c5cnc6[nH]ccc6c5)ccn4)cn(C)c3=O)cc2)CC1', 'IC50', '100 to 10000 nM');

###

Listed here: items and their measured pIC50.
- Assayed System: PI3Kbeta (Homo sapiens, UniProt P42338)
- Assay Info: Biochemical PI3Kbeta assay (neomycin SPA, lipid phosphorylation)
- Condition: human recombinant GST-PI3K
- Procedure: The efficacy of the compounds according to the invention in the inhibition of PI3K-induced lipid phosphorylation can be investigated in the following binding assay. […] After precipitation of the neomycin-coated PVT-SPA beads over 5 minutes at 1500×g, radioactive Ptdlns(3)P is quantified by scintillation counting in a Wallac Micro-Beta™ plate counter.
pIC50: −log10 of the molar value.
Parameter: pIC50

INSERT INTO measurements (smiles_representation, readout_value) VALUES
  ('Cn1cc(-c2cc(-c3cnc(N)c(C(F)(F)F)c3)ccn2)n(-c2ccc(N3CCNCC3)c(C(F)(F)F)c2)c1=O', '5.00 to 7.00'),
  ('Cn1cc(-c2cc(-c3cnc4[nH]ccc4n3)ccn2)n(-c2ccc(C(C)(C)C#N)cc2)c1=O', '5.00 to 7.00'),
  ('Cn1cc(-c2cc(-c3cnc4ccccc4c3)ccn2)n(-c2ccc(C(C)(C)CN)cc2)c1=O', '< 5.00'),
  ('CC(C)(C#N)c1ccc(-n2c(-c3cc(-c4cnc5ccccc5c4)ccn3)c[nH]c2=O)cc1', '5.00 to 7.00'),
  ('COc1ccc(Cn2c(-c3cc(-c4cnc(NC(C)=O)c(C(F)(F)F)c4)ccn3)cn(C)c2=O)cc1', '< 5.00'),
  ('Cn1cc(-c2cc(-c3cnc4[nH]ccc4c3)ccn2)n(-c2cccc(C#N)c2)c1=O', '5.00 to 7.00'),
  ('Cn1cc(-c2cc(-c3cnc4ccccc4c3)ccn2)n(-c2ccc(C(C)(C)C#N)cc2)c1=O', '5.00 to 7.00');

###

- Assayed System: recombinant PI3Kalpha (shortened form of the catalytic subunit) (Homo sapiens)
- Sequence (P42336 151-1068 limits assumed): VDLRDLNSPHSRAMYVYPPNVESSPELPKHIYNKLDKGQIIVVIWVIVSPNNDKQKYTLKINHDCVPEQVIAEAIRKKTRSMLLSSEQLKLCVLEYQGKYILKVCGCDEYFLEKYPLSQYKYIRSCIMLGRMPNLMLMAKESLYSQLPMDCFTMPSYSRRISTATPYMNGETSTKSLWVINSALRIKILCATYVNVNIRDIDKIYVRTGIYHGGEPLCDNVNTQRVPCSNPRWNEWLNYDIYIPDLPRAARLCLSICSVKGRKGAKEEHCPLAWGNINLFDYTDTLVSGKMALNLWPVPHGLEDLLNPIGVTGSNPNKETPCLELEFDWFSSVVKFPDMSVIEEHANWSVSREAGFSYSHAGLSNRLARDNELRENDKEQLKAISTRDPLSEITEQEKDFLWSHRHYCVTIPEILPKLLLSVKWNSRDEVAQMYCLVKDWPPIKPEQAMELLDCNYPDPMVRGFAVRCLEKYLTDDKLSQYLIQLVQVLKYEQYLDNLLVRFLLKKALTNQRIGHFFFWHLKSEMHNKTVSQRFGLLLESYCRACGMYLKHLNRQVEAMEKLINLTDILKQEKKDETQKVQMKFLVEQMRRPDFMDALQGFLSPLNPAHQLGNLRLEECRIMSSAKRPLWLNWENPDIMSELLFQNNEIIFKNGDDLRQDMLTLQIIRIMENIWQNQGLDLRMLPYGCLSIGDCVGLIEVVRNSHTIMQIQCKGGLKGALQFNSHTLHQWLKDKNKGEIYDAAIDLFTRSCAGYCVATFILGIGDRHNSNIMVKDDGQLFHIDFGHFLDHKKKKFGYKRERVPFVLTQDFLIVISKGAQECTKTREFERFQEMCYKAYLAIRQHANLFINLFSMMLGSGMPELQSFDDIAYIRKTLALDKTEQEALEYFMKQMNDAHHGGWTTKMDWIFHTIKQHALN
- Assay Info: BIACORE PI3K binding assay (SPR)
- Condition: 25° C.
Listed here: items and their measured Kd.
Parameter: Kd

INSERT INTO results (smiles_representation, parameter, readout_value) VALUES
  ('Cn1cc(-c2cc(-c3cnc4[nH]ccc4c3)ccn2)n(-c2cccc(Oc3ccccc3)c2)c1=O', 'Kd', '0.1 to 100 nM'),
  ('CCOC(=O)C(C)(C)c1ccc(-n2c(-c3cc(-c4cnc5ccccc5c4)ccn3)cn(C)c2=O)cc1', 'Kd', '100 to 10000 nM'),
  ('CNc1ccc(-c2ccnc(-c3cn(C)c(=O)n3-c3ccc(C(C)(C)C#N)cc3)c2)cn1', 'Kd', '0.1 to 100 nM'),
  ('Cn1cc(-c2cc(-c3cnc4[nH]cnc4c3)ccn2)n(-c2ccc(C(C)(C)C#N)cc2)c1=O', 'Kd', '0.1 to 100 nM'),
  ('CC(C)(C#N)c1ccc(-n2c(-c3cc(-c4cnc5ccccc5c4)ccn3)c[nH]c2=O)cc1', 'Kd', '100 to 10000 nM'),
  ('COC(=O)c1c[nH]c2ncc(-c3ccnc(-c4cn(C)c(=O)n4-c4ccc(C(C)(C)C#N)cc4)c3)cc12', 'Kd', '0.1 to 100 nM'),
  ('CC(C)(C#N)c1ccc(-n2c(-c3cc(-c4cnc5[nH]ccc5c4)ccn3)c[nH]c2=O)cc1', 'Kd', '0.1 to 100 nM'),
  ('Cn1cc(-c2cc(-c3cnc4c(c3)CC(=O)N4)ccn2)n(-c2ccc(C(C)(C)C#N)cc2)c1=O', 'Kd', '0.1 to 100 nM'),
  ('CN1CCN(c2ccc(-n3c(-c4cc(-c5cnc6[nH]ccc6c5)ccn4)cn(C)c3=O)cc2C(F)(F)F)CC1', 'Kd', '0.1 to 100 nM'),
  ('Cn1cc(-c2cc(-c3cnc(N)c(C(F)(F)F)c3)ccn2)n(-c2ccc(F)c(C(F)(F)F)c2)c1=O', 'Kd', '100 to 10000 nM'),
  ('COc1ccc(Cn2c(-c3cc(-c4cnc5[nH]ccc5c4)ccn3)cn(C)c2=O)cc1', 'Kd', '100 to 10000 nM'),
  ('COc1ccc(-c2ccnc(-c3c[nH]c(=O)n3-c3ccc(N4CCNCC4)c(C(F)(F)F)c3)c2)cn1', 'Kd', '100 to 10000 nM'),
  ('Cn1cc(-c2cc(-c3cnc4[nH]ccc4c3)ccn2)n(-c2ccc(C(C)(C)C#N)cc2)c1=O', 'Kd', '0.1 to 100 nM'),
  ('COc1ccc(-c2ccnc(-c3cn(C)c(=O)n3-c3ccc(C(C)(C)C#N)cc3)c2)cc1', 'Kd', '100 to 10000 nM'),
  ('COc1ccc(-c2ccnc(-c3c[nH]c(=O)n3-c3ccc(C(C)(C)C#N)cc3)c2)cn1', 'Kd', '100 to 10000 nM'),
  ('Cn1cc(-c2cc(-c3cnc4[nH]ccc4c3)ccn2)n(-c2ccccc2C#N)c1=O', 'Kd', '100 to 10000 nM'),
  ('Cc1cc2cc(-c3ccnc(-c4cn(C)c(=O)n4-c4ccc(N5CCN(C)CC5)c(C(F)(F)F)c4)c3)cnc2[nH]1', 'Kd', '100 to 10000 nM'),
  ('Cn1cc(-c2cc(-c3cnc4[nH]cc(C(F)(F)F)c4c3)ccn2)n(-c2ccc(C(C)(C)C#N)cc2)c1=O', 'Kd', '0.1 to 100 nM'),
  ('CCc1cccc(-n2c(-c3cc(-c4cnc5[nH]ccc5c4)ccn3)cn(C)c2=O)c1', 'Kd', '> 10000 nM'),
  ('Cn1cc(-c2cc(-c3cnc(N)c(C(F)(F)F)c3)ccn2)n(-c2cccc(C#N)c2)c1=O', 'Kd', '0.1 to 100 nM'),
  ('Cn1cc(-c2cc(-c3cnc4[nH]ccc4c3)ccn2)n(-c2ccc(C(C)(C)C(=O)O)cc2)c1=O', 'Kd', '0.1 to 100 nM'),
  ('Cn1cc(-c2cc(-c3cnc(N)c(-c4ccccc4)c3)ccn2)n(-c2ccc(C(C)(C)C#N)cc2)c1=O', 'Kd', '0.1 to 100 nM'),
  ('Cn1cc(-c2cc(-c3cnc4[nH]ccc4c3)ccn2)n(-c2ccccc2C(F)(F)F)c1=O', 'Kd', '100 to 10000 nM'),
  ('CN1CCN(c2ccc(-n3c(-c4cc(-c5cnc6[nH]ccc6c5)ccn4)cn(C)c3=O)cc2C#N)CC1', 'Kd', '0.1 to 100 nM'),
  ('COc1ccc(Cn2c(-c3cc(-c4cnc(N)c(C(F)(F)F)c4)ccn3)cn(C)c2=O)cc1', 'Kd', '100 to 10000 nM'),
  ('Cn1cc(-c2cc(-c3cnc(N)c(C#N)c3)ccn2)n(-c2ccc(N3CCNCC3)c(C(F)(F)F)c2)c1=O', 'Kd', '0.1 to 100 nM'),
  ('CCn1cc(-c2cc(-c3cnc4[nH]ccc4c3)ccn2)n(-c2ccc(C(C)(C)C#N)cc2)c1=O', 'Kd', '0.1 to 100 nM'),
  ('N#CCc1ccc(-n2c(-c3cc(-c4cnc5[nH]ccc5c4)ccn3)c[nH]c2=O)cc1', 'Kd', '0.1 to 100 nM'),
  ('Cn1cc(-c2cc(-c3cnc4ccccc4c3)ccn2)n(-c2ccc(C(C)(C)C(N)=O)cc2)c1=O', 'Kd', '0.1 to 100 nM'),
  ('Cn1cc(-c2cc(-c3cnc4[nH]c(C(C)(C)C)cc4c3)ccn2)n(-c2ccc(C(C)(C)C#N)cc2)c1=O', 'Kd', '100 to 10000 nM');
